- target or test system: Gonadotropin-releasing hormone receptor (Rattus norvegicus, UniProt P30969)
- procedure details: Concentration of the peptide which displaces 50% of 125 I-[D-Lys6] gonadotropin-releasing hormone bound to rat pituitary membranes
pIC50: −log10 of the molar value.
parameter measured: pIC50

Illustrative cases are given below, each with its answer.
[ask] Fill in the recorded pIC50 for this molecule, with Gonadotropin-releasing hormone receptor (Rattus norvegicus, UniProt P30969) as test system: CC(=O)N[C@H](Cc1ccc2ccccc2c1)C(=O)N[C@H](Cc1ccc(Cl)cc1)C(=O)N[C@H](Cc1ccccn1)C(=O)N[C@H](C)C(=O)N1CCC[C@H]1C(=O)N[C@H](C)C(N)=O
[reply] 5.82

[ask] Now the same for CC(=O)N[C@H](Cc1ccc2ccccc2c1)C(=O)N[C@H](Cc1ccc(Cl)cc1)C(=O)N[C@H](Cc1ccccn1)C(=O)N(C)CC(=O)N[C@@H](CCCNC(=N)N)C(=O)N1CCC[C@H]1C(=O)N[C@H](C)C(N)=O
[reply] 7.51

[ask] Now the same for CC(=O)N[C@H](Cc1ccccc1)C(=O)N[C@H](Cc1ccccc1)C(=O)N[C@H](Cc1ccccc1)C(=O)NCC(=O)N[C@@H](CCCNC(=N)N)C(=O)N1CCC[C@H]1C(=O)N[C@H](C)C(N)=O
[reply] 6.64

[ask] Now the same for CC(=O)N[C@H](Cc1c[nH]c2ccccc12)C(=O)N[C@H](Cc1ccccc1)C(=O)N[C@H](Cc1ccccc1)C(=O)NCC(=O)N[C@@H](CCCN=C(N)N)C(=O)N1CCC[C@H]1C(=O)N[C@H](C)C(N)=O
[reply] 6.35

[ask] Now the same for CC(=O)N[C@@H](Cc1ccc2ccccc2c1)C(=O)N[C@H](Cc1ccc(Cl)cc1)C(=O)N[C@H](Cc1ccccn1)C(=O)N[C@H](CCCCN)C(=O)N1CCC[C@@H]1C(=O)N[C@@H](C)C(N)=O
[reply] 6.26

[a] CC(=O)N[C@H](Cc1ccc2ccccc2c1)C(=O)N[C@H](Cc1ccc(Cl)cc1)C(=O)N[C@H](Cc1ccccn1)C(=O)NCC(=O)N[C@H](CCCNC(=N)N)C(=O)N1CCC[C@H]1C(=O)N[C@H](C)C(N)=O
[b] CC(=O)N[C@H](Cc1ccc2ccccc2c1)C(=O)N[C@H](Cc1ccc(Cl)cc1)C(=O)N[C@H](Cc1ccccn1)C(=O)NCC(=O)N1CCC[C@H]1C(=O)N[C@H](C)C(N)=O
[ask] Response body: label of entry with the larger pIC50; valid values a , b . Refer to your chosen entry by its label in the reply.
[reply] a
(a: 7.80, b: 7.35)

* * *

- target or test system: Gonadotropin-releasing hormone receptor (Rattus norvegicus)
- Sequence (P30969 whole entry): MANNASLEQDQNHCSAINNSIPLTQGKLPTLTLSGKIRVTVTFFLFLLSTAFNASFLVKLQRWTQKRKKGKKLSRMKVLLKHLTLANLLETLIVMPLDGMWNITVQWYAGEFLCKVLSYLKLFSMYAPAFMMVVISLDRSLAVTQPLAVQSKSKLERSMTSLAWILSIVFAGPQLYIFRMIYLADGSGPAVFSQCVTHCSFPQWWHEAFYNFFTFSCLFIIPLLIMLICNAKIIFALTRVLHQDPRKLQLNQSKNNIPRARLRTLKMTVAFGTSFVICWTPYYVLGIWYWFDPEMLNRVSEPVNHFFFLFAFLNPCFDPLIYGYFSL
- procedure details: Concentration of the peptide which displaces 50% of 125 I-[D-Lys6] gonadotropin-releasing hormone bound to rat pituitary membranes
parameter measured: IC50 (nM)

[ask] Please look up its IC50: CC(=O)N[C@H](Cc1ccc2ccccc2c1)C(=O)N[C@H](Cc1ccccc1)C(=O)N[C@H](Cc1ccccc1)C(=O)NCC(=O)N[C@@H](CCCN=C(N)N)C(=O)N1CCC[C@H]1C(=O)N[C@H](C)C(N)=O
[reply] 28

[P] CC(=O)N[C@H](Cc1ccc2ccccc2c1)C(=O)N[C@H](Cc1ccc(Cl)cc1)C(=O)N[C@H](Cc1ccccn1)C(=O)N[C@H](C)C(=O)N[C@@H](CCCCN)C(=O)N1CCC[C@H]1C(=O)N[C@H](C)C(N)=O
[Q] CC(=O)N[C@H](Cc1ccc2ccccc2c1)C(=O)N[C@H](Cc1ccc(Cl)cc1)C(=O)N[C@H](Cc1ccccn1)C(=O)NCC(=O)N[C@@H](CCCN=C(N)N)C(=O)N1CCC[C@H]1C(=O)N[C@H](C)C(N)=O
[R] CC(=O)N[C@H](Cc1ccc2ccccc2c1)C(=O)N[C@H](Cc1ccc(Cl)cc1)C(=O)N[C@H](Cc1ccccn1)C(=O)N[C@H](CCCNC(=N)N)C(=O)N1CCC[C@H]1C(=O)N[C@H](C)C(N)=O
[S] CC(=O)N[C@H](Cc1ccc2ccccc2c1)C(=O)N[C@H](Cc1ccc(Cl)cc1)C(=O)N[C@H](Cc1ccccn1)C(=O)N[C@@H](CCCN=C(N)N)C(=O)N1CCC[C@H]1C(=O)N[C@H](C)C(N)=O
[ask] Rank the 4 compounds: largest IC50 first, smallest last. Response format: the labels, sorted as the prompt asks.
[reply] S, R, P, Q
(S: 130 nM, R: 70 nM, P: 20 nM, Q: 7 nM)

* * *

- target or test system: Gonadotropin-releasing hormone receptor (Rattus norvegicus, UniProt P30969)
- procedure details: Concentration of the peptide which displaces 50% of 125 I-[D-Lys6] gonadotropin-releasing hormone bound to rat pituitary membranes
parameter measured: IC50 (nM)

Illustrative cases are given below, each with its answer.
[ask] Please look up its IC50: CC(=O)N[C@H](Cc1ccc2ccccc2c1)C(=O)N[C@H](Cc1ccc(Cl)cc1)C(=O)N[C@H](Cc1ccccn1)C(=O)N[C@@H](C)C(=O)N[C@@H](CCCNC(=N)N)C(=O)N1CCC[C@H]1C(=O)N[C@H](C)C(N)=O
[reply] 28

[ask] Now the same for CC(=O)N[C@@H](Cc1ccc2ccccc2c1)C(=O)N[C@H](Cc1ccc(Cl)cc1)C(=O)N[C@H](Cc1ccccn1)C(=O)N[C@@H](Cc1ccc(O)cc1)C(=O)N[C@H](CCCN=C(N)N)C(=O)N1CCC[C@@H]1C(=O)N[C@@H](C)C(N)=O
[reply] 25

[A] CC(=O)N[C@H](Cc1ccc2ccccc2c1)C(=O)N[C@H](Cc1ccc(Cl)cc1)C(=O)N[C@H](Cc1ccccn1)C(=O)N[C@H](CC(C)C)C(=O)N[C@@H](CCCNC(=N)N)C(=O)N1CCC[C@H]1C(=O)N[C@H](C)C(N)=O
[B] CC(=O)N[C@H](Cc1ccc2ccccc2c1)C(=O)N[C@H](Cc1ccc(Cl)cc1)C(=O)N[C@H](Cc1ccccn1)C(=O)N[C@H](C)C(=O)N[C@@H](CCCNC(N)=O)C(=O)N1CCC[C@H]1C(=O)N[C@H](C)C(N)=O
[C] CC(=O)N[C@H](Cc1ccc2ccccc2c1)C(=O)N[C@H](Cc1ccc(Cl)cc1)C(=O)N[C@H](Cc1ccccn1)C(=O)NCCC(=O)N[C@@H](CCCNC(=N)N)C(=O)N1CCC[C@H]1C(=O)N[C@H](C)C(N)=O
[D] CC(=O)N[C@H](Cc1ccc2ccccc2c1)C(=O)N[C@H](Cc1ccc(Cl)cc1)C(=O)N[C@H](Cc1cccnc1)C(=O)N1CCC[C@H]1C(=O)N[C@@H](CCCN=C(N)N)C(=O)N1CCC[C@H]1C(=O)N[C@H](C)C(N)=O
[E] C[C@@H](NC(=O)[C@@H]1CCCN1C(=O)[C@H](CCCNC(=N)N)NC(=O)CNC(=O)[C@@H](Cc1ccccc1)NC(=O)[C@@H](Cc1ccccc1)NC(=O)[C@@H](Cc1ccc2ccccc2c1)NC(=O)OCC1c2ccccc2-c2ccccc21)C(N)=O
[ask] Order by IC50, ascending. Response format: the labels, sorted as the prompt asks.
[reply] B, C, A, D, E

* * *

- target or test system: Gonadotropin-releasing hormone receptor (Rattus norvegicus)
- procedure details: Concentration of the peptide which displaces 50% of 125 I-[D-Lys6] gonadotropin-releasing hormone bound to rat pituitary membranes
parameter measured: IC50 (nM)

[1] CC(=O)N[C@H](Cc1ccc2ccccc2c1)C(=O)N[C@H](Cc1ccc(Cl)cc1)C(=O)N[C@H](Cc1ccccn1)C(=O)NC1(C(=O)N[C@@H](CCCN=C(N)N)C(=O)N2CCC[C@H]2C(=O)N[C@H](C)C(N)=O)CCC1
[2] CC(=O)N[C@H](Cc1cccc2ccccc12)C(=O)N[C@H](Cc1ccccc1)C(=O)N[C@H](Cc1ccccc1)C(=O)NCC(=O)N[C@@H](CCCNC(=N)N)C(=O)N1CCC[C@H]1C(=O)N[C@H](C)C(N)=O
[3] CC(=O)N[C@H](Cc1ccc2ccccc2c1)C(=O)N[C@H](Cc1ccc(Cl)cc1)C(=O)N[C@H](Cc1ccccn1)C(=O)N[C@H](C)C(=O)N[C@@H](CCCCNNC(=O)c1cccnc1)C(=O)N1CCC[C@H]1C(=O)N[C@H](C)C(N)=O
[4] CC(=O)N[C@H](Cc1ccc2ccccc2c1)C(=O)N[C@H](Cc1ccc(Cl)cc1)C(=O)N[C@H](Cc1ccccn1)C(=O)N[C@H](C)C(=O)N[C@@H](CCCCNC(C)C)C(=O)N1CCC[C@H]1C(=O)N[C@H](C)C(N)=O
[ask] From the records above, write out the order of decreasing IC50. Response format: the labels, sorted as the prompt asks.
[reply] 2, 4, 1, 3
